Origin of measurements: PubChem BioAssay (NCI)

test system: NCI/ADR-RES ovarian; assay: NCI-60 one-dose screen, 48 h; conditions: 10 µM unless noted
This is part of a sample that, as a whole, favours compounds with a hit. Of some 83,000 tested, about 20% had one in any assay. Active and inactive are the calls of the source. The calls were made as follows: active = growth percent below 10; inactive = the rest.
The reply should be one of these categories: active, inactive

Task item: Look up the recorded call for CC(=O)c1cc(C)c(OC(=O)c2ccccc2)c(C)c1 in this test.
Reply: inactive

Task item: Look up the recorded call for CC1SC(c2cccc(Oc3ccccc3)c2)N(CCc2cccs2)C1=O (centres undefined) in this test.
Reply: active

Task item: Look up the recorded call for c1ccc(-c2nc(N3CCOCC3)c3c4c(sc3n2)CCCCCC4)nc1 in this test.
Reply: inactive

Task item: Look up the recorded call for C[C@@H](Oc1cc(-c2cnn(C3CC4(CNC4)C3)c2)cnc1N)c1c(Cl)ccc(F)c1Cl in this test.
Reply: inactive

Task item: Look up the recorded call for CCCCCCCC/C=C\CCCCCCCCOc1cccc(CC(=O)NCC[N+]2(C)CCCCC2)c1 in this test.
Reply: inactive

Task item: Look up the recorded call for Cc1nc(-c2ccccc2)cc2c(O)c(C(=O)N/N=C/Cc3ccccc3)[nH]c(=O)c12 in this test.
Reply: inactive

New cases:
Task item: Look up the recorded call for COc1cc2cc(Oc3ccc(NC(=O)Nc4ccc(Cl)c(C(F)(F)F)c4)cc3)c(C)nc2cc1OCCN1CCCCC1 in this test.
Reply: active

Task item: Look up the recorded call for O=C1C(N2CCOCC2)=Cc2cccc3cccc1c23 in this test.
Reply: inactive
